Hello, the source for this data is patent US8735426B2, in case you need it.

molecules and their reported inhibition at 10 µM
# measured.on: vanilloid receptor 1 (VR1/TRPV1-Receptor) (Homo sapiens)
# Sequence (Q8NER1 whole entry): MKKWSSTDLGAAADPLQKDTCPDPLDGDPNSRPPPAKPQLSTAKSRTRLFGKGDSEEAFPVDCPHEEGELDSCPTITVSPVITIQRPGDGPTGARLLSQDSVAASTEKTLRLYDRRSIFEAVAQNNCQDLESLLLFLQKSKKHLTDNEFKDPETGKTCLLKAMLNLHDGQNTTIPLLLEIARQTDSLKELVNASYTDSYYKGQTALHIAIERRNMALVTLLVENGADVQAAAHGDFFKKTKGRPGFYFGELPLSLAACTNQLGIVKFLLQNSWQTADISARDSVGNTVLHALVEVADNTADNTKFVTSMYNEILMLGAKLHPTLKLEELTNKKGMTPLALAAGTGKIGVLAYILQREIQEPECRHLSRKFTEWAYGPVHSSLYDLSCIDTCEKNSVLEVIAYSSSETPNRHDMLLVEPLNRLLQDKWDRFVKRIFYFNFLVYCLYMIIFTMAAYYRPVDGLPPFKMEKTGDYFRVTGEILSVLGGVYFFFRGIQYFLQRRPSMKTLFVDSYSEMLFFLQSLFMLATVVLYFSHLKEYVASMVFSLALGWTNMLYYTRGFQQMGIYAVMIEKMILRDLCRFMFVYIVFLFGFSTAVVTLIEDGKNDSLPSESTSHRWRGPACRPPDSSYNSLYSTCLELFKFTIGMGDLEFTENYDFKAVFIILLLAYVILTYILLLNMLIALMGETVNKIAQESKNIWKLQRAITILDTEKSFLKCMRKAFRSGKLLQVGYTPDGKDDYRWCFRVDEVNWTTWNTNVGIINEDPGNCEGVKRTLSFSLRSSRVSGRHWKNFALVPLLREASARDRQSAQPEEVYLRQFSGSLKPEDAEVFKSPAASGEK
# assay.notes: VR1 functional assay following pH-stimulus
# Assay type: cell-based
# condition.context: @ 10 μM, read-out: inhibition (in percent), Human following pH-stimulus
value.kind: inhibition at 10 µM (%)

# molecule, value.kind, units.of.measure, measured
measured = [
    ("CS(=O)(=O)Nc1ccc(C(C(=O)NCc2ccc(C(F)(F)F)nc2SC2CCCCC2)C2CCCC2)cc1F (stereo not drawn) [Example 22]", "inhibition at 10 µM", "%", 46),
    ("CS(=O)(=O)Nc1ccc(C2(C(=O)NCc3ccc(C(F)(F)F)nc3SC3CCCCC3)CCCC2)cc1F [Example 14]", "inhibition at 10 µM", "%", 33),
    ("CC1CCN(c2nc(C(F)(F)F)ccc2CNC(=O)C2(c3ccc(NS(C)(=O)=O)c(F)c3)CCCCC2)CC1 [Example 15]", "inhibition at 10 µM", "%", 32),
    ("CC(C)(C(=O)NCc1ccc(C(F)(F)F)nc1SC1CCCCC1)c1ccc(NS(C)(=O)=O)c(F)c1 [Example 6]", "inhibition at 10 µM", "%", 54),
    ("CCC(C)(C(=O)NCc1ccc(C(F)(F)F)nc1SC1CCCCC1)c1ccc(NS(C)(=O)=O)c(F)c1 (stereo not drawn) [Example 8]", "inhibition at 10 µM", "%", 20),
    ("CCC(C)(C(=O)NCc1ccc(C(F)(F)F)nc1N1CCC(C)CC1)c1ccc(NS(C)(=O)=O)c(F)c1 (stereo not drawn) [Example 7]", "inhibition at 10 µM", "%", 18),
]

---

# measured.on: vanilloid receptor (VR1) (Homo sapiens, UniProt Q8NER1)
# assay.notes: Functional FLIPR Ca2+ influx assay in CHO-K1 cells transfected with the VR1 gene, capsaicin stimulus (Pharmacological Method II)
molecules and their reported Ki

# molecule, units.of.measure, Ki
measured = [
    ("CC1CCN(c2nc(C(F)(F)F)ccc2CNC(=O)C(C)(C)c2ccc(NS(C)(=O)=O)c(F)c2)CC1 [Example 5]", "nM", 49),
    ("CC1CCN(c2nc(C(F)(F)F)ccc2CNC(=O)C(c2cccc(F)c2)c2ccc(NS(C)(=O)=O)c(F)c2)CC1 (stereo not drawn) [Example 34]", "nM", 2.4),
    ("CC1CCN(c2nc(C(F)(F)F)ccc2CNC(=O)C(c2ccccc2)c2ccc(NS(C)(=O)=O)c(F)c2)CC1 (stereo not drawn) [Example 3]", "nM", 1.3),
]
